Form field: Percent Distribution (2 hr incubation) Human (one value per entry).
Experiment: Metabolite profiling and identification in human hepatocytes
Format: in vitro ADME
Conditions: relative abundance among metabolites of the parent (1 μM), human hepatocytes, 2 hr, equal LC/MS sensitivity assumed
readout.type: Percent Distribution (2 hr incubation) Human (%)

* O=C(O)CCCCCCCc1ccc(CCC(CO)(CO)NC(=O)CC[P+](c2ccccc2)(c2ccccc2)c2ccccc2)cc1 | 27.3
* CC(=O)NC(CO)(CO)CCc1ccc(CC(=O)O)cc1 | 7.21
* CC(=O)NC(CO)(CO)CCc1ccc(CCCCCCCC(=O)O)cc1 | 52.13
* CC(=O)NC(CO)(CO)CCc1ccc(CCCC(=O)O)cc1 | 25.57
* O=C(O)CCCCCc1ccc(CCC(CO)(CO)NC(=O)CC[P+](c2ccccc2)(c2ccccc2)c2ccccc2)cc1 | 54.8
